Each recorded value in this set is attributed to PubChem BioAssay AID1963986.

- Tested on: 171881-019-R-J1-PDC tumor spheroid viability;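 further: spheroids exposed to compound for 7 days before viability read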
- assay-overview: Anticancer human tumor 171881-019-R-J1-PDC patient-derived invasive breast carcinoma cell line growth inhibition [PI3K]; active means viability on the fitted dose curve at most 10% of control; inactive means the rest
- setup-conditions: second compound 0.1 µM; first compound 0.316 µM; spheroids with HUVEC and MSC
# valid calls are active, inactive; nothing else

Answered examples (4):
compound: Cn1ncc(Cl)c1-c1cc(C(=O)NC(CN)Cc2cccc(F)c2)sc1Cl (stereo not given) + COc1c(OCCCN2CCOCC2)ccc2c3n(c(=NC(=O)c4cnc(N)nc4)nc12)CCN3
category: active
//
compound: C=CC(=O)N1CCN(c2nc(=O)n(-c3c(C)ccnc3C(C)C)c3nc(-c4c(O)cccc4F)c(F)cc23)C(C)C1 (stereo not given) + COc1c(OCCCN2CCOCC2)ccc2c3n(c(=NC(=O)c4cnc(N)nc4)nc12)CCN3
category: active
//
compound: Cn1ncc(Cl)c1-c1cc(C(=O)NC(CN)Cc2cccc(F)c2)sc1Cl (stereo not given) + CC(Nc1ncnc2nc[nH]c12)c1cc2cccc(Cl)c2c(=O)n1-c1ccccc1
category: inactive
//
compound: C#Cc1c(F)ccc2cc(O)cc(-c3ncc4c(N5CC6CCC(C5)N6)nc(OCC56CCCN5CC(F)C6)nc4c3F)c12 (stereo not given) + Cc1nc(NC(=O)N2CCCC2C(N)=O)sc1-c1ccnc(C(C)(C)C(F)(F)F)c1
category: inactive

Now examine the next entry.
Query: Kindly provide the recorded test outcome for the following compound: CCN1CCN(Cc2ccc(Nc3ncc(F)c(-c4cc(F)c5nc(C)n(C(C)C)c5c4)n3)nc2)CC1 + CC(Nc1ncnc2nc[nH]c12)c1cc2cccc(Cl)c2c(=O)n1-c1ccccc1
Response: inactive
